# test.target: Androgen Receptor (Homo sapiens, UniProt P10275)
# Construct: endogenous in cells; host or cells: VCaP cells
# Sequence (P10275 whole entry): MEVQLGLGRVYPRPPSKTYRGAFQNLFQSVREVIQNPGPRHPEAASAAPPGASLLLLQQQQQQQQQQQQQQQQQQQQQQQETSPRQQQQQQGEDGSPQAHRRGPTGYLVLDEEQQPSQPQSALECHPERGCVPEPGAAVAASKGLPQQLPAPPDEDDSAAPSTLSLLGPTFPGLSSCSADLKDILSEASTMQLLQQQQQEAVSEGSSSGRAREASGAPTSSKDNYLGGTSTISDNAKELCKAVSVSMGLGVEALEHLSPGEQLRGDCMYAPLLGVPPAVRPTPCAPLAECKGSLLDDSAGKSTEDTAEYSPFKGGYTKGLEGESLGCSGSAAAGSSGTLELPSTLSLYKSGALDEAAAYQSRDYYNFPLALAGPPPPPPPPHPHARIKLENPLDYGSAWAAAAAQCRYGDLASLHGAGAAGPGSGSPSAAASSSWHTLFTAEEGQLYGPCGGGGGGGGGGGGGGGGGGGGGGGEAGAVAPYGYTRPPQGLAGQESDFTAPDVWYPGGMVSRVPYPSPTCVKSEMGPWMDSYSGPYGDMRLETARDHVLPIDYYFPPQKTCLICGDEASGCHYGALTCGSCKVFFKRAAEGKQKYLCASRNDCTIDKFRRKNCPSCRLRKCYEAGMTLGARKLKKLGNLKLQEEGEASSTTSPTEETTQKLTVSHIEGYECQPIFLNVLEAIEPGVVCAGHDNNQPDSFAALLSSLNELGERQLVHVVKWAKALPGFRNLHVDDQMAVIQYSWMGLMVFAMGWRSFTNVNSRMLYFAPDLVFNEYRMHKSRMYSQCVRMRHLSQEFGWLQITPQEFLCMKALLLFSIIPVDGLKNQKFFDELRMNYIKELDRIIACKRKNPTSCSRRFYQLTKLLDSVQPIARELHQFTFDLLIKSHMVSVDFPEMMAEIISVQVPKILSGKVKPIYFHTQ
# protocol.notes: Androgen Receptor ELISA assay (PathScan AR ELISA) in VCaP cells: AR degradation, Dmax and DC50
# Assay type: cell-based
# condition: VCaP, read-out: VCaP Dmax (%)
Listed here are compounds together with their documented Dmax.

Cn1cncc1-c1ccc(CNC(=O)[C@@H]2C[C@@H](O)CN2C(=O)[C@@H](NC(=O)COCCCCOc2ccc(-c3ccc(N4C(=S)N(c5ccc(C#N)c(C(F)(F)F)c5)C(=O)C4(C)C)cc3)cc2)C(C)(C)C)cc1 = > 71%
CCOC(=O)c1ncsc1-c1ccc(CNC(=O)[C@@H]2C[C@@H](O)CN2C(=O)[C@@H](NC(=O)COCCCCOc2ccc(-c3ccc(N4C(=S)N(c5ccc(C#N)c(C(F)(F)F)c5)C(=O)C4(C)C)cc3)cc2)C(C)(C)C)cc1 = < 25%
Cc1ncsc1-c1ccc([C@H](C)NC(=O)[C@@H]2C[C@@H](O)CN2C(=O)[C@@H](NC(=O)CN2CCN(C3CC4(C3)CN(c3ccc(C(=O)N[C@H]5C(C)(C)[C@H](Oc6ccc(C#N)c(Cl)c6)C5(C)C)cn3)C4)CC2)C(C)(C)C)cc1 = > 71%

Input line: Given the compound "Cc1ncsc1-c1ccc(CNC(=O)[C@@H]2C[C@@H](O)CN2C(=O)[C@@H](NC(=O)COCCCOCCCCOc2ccc(N3C(=S)N(c4ccc(C#N)c(C(F)(F)F)c4)C(=O)C3(C)C)cc2)C(C)C)cc1" , what is its reported Dmax?
Output line: 51 to 70%
